test.method.notes: DPPH radical scavenging activity
condition.details: sample concentration 50 μM
assay.metric: DPPH Radical Scavenging Activity (%)
Field format: number, assumed %, no unit text.

// field: DPPH Radical Scavenging Activity; key: CC1O[C@@H](OC2C(O)[C@@H](O)C(CO)O[C@H]2Oc2c(-c3ccc(O)c(O)c3)oc3cc(O)cc(O)c3c2=O)C(O)C(O)[C@H]1O (stereo partly shown) [Formula 5] ; value = 85.9

// field: DPPH Radical Scavenging Activity; key: O=c1c(O[C@@H]2OC(CO)[C@@H](O)C(O)C2O[C@@H]2OC(CO)[C@@H](O)C(O)C2O)c(-c2ccc(O)c(O)c2)oc2cc(O)cc(O)c12 (stereo partly shown) [Formula 4] ; value = 59.5

// field: DPPH Radical Scavenging Activity; key: C[C@@H]1O[C@@H](OC[C@H]2O[C@@H](Oc3c(-c4ccc(O)c(O)c4)oc4cc(O)cc(O)c4c3=O)[C@H](O[C@@H]3O[C@H](CO)[C@@H](O)[C@H](O)[C@H]3O)[C@@H](O)[C@@H]2O)[C@H](O)[C@H](O)[C@H]1O [Formula 2] ; value = 52.0

// field: DPPH Radical Scavenging Activity; key: O=c1c(-c2ccc(O)cc2)coc2cc(O[C@@H]3O[C@H](CO)[C@@H](O)[C@H](O)[C@H]3O)cc(O)c12 [Comparative Example 4, Genistin, reference compound] ; value = 3.4

// field: DPPH Radical Scavenging Activity; key: O=c1c(O[C@@H]2OC(CC[C@@H]3OC(O)[C@H](O)C(O)C3O)[C@H](O)C(O)C2O[C@@H]2OC(CO)[C@@H](O)C(O)C2O)c(-c2ccc(O)cc2)oc2cc(O)cc(O)c12 (stereo partly shown) [Comparative Example 2, reference compound] ; value = 8.0

// field: DPPH Radical Scavenging Activity; key: O=c1c(O[C@@H]2OC(CO)[C@H](O)C(O)C2O[C@@H]2OC(CO)[C@@H](O)C(O)C2O)c(-c2ccc(O)c(O)c2)oc2cc(O)cc(O)c12 (stereo partly shown) [Formula 3] ; value = 64.8

// field: DPPH Radical Scavenging Activity; key: O=c1c(O[C@@H]2OC(CC[C@@H]3OC(O)[C@H](O)C(O)C3O)[C@H](O)C(O)C2O[C@@H]2OC(O)[C@H](O)C(O)C2O)c(-c2ccc(O)cc2)oc2cc(O)cc(O)c12 (stereo partly shown) [Comparative Example 3, reference compound] ; value = 4.0

// field: DPPH Radical Scavenging Activity; key: COc1cc(-c2oc3cc(O)cc(O)c3c(=O)c2O[C@@H]2OC(CO)[C@H](O)C(O)C2O[C@@H]2OC(C)[C@H](O)C(O)C2O)ccc1O (stereo partly shown) [Formula 7] ; value = 7.5

// field: DPPH Radical Scavenging Activity; key: C[C@@H]1O[C@@H](OC[C@H]2O[C@@H](Oc3c(-c4ccc(O)c(O)c4)oc4cc(O)cc(O)c4c3=O)[C@H](O[C@@H]3O[C@H](CO)[C@@H](O)[C@H](O)[C@H]3O)[C@@H](O)[C@H]2O)[C@H](O)[C@H](O)[C@H]1O [Formula 1] ; value = 60.3

// field: DPPH Radical Scavenging Activity; key: COc1cc(-c2oc3cc(O)cc(O)c3c(=O)c2O[C@@H]2OC(CO)[C@H](O)C(O)C2O[C@@H]2OC(CO)[C@@H](O)C(O)C2O)ccc1O (stereo partly shown) [Formula 6] ; value = 11.5

Data provenance: patent US10765128B2
